In this section we review reported inhibition at 0.1 µM values for a set of molecules.
molecular target: CYP2D6 (Homo sapiens); assay: Inhibition of CYP2D6 (unknown origin) at 0.1 uM relative to control; format: ADME
Sequence (P10635 whole entry): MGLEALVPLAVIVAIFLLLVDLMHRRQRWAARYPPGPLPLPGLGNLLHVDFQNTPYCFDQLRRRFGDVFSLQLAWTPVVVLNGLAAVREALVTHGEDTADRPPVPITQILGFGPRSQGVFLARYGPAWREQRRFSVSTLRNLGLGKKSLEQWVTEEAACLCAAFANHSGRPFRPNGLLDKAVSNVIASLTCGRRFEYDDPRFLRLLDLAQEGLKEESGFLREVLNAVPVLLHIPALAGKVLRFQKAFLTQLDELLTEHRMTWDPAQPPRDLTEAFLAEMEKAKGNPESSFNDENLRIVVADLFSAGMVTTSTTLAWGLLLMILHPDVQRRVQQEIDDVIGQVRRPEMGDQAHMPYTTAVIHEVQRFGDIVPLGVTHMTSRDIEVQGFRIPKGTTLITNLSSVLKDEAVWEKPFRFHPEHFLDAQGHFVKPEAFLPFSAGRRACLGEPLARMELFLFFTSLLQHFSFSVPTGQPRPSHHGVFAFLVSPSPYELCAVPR
Express your answer in %, writing the number without its unit.

// below: answered molecules
[
  {
    "smilesText": "C[C@@H](N[C@H]1CCN(c2cccc(OC(F)(F)F)c2)C1)c1cccc2ccccc12",
    "valueUnits": "%",
    "readoutValue": 85.9
  },
  {
    "smilesText": "C[C@@H](N[C@@H]1CCN(c2cccc(OC(F)(F)F)c2)C1)c1cccc2ccccc12",
    "valueUnits": "%",
    "readoutValue": 15.8
  }
]

Quick check: inhibition at 0.1 µM of C[C@@H](N[C@H]1CCN(c2ccc(C(=O)NCCO)cc2)C1)c1cccc2ccccc12 ?
4.4

Follow-up item: C[C@@H](N[C@@H]1CCN(c2cccc(C(F)(F)F)c2)C1)c1cccc2ccccc12
3

Likewise for C[C@@H](N[C@H]1CCN(c2ccc(C(=O)O)cc2)C1)c1cccc2ccccc12 ?
0

Then C[C@@H](N[C@H]1CCCN(c2cccc(OC(F)(F)F)c2)C1)c1cccc2ccccc12 ?
79

Quick one: C[C@@H](N[C@H]1CCN(c2cccc(C(F)(F)F)c2)C1)c1cccc2ccccc12
85.1
